Entry source: ChEMBL document CHEMBL1201862

- MEASURED ON: ATP-dependent molecular chaperone HSP82 (Candida albicans (strain WO-1) (Yeast))
- Sequence (C4YTQ8 whole entry): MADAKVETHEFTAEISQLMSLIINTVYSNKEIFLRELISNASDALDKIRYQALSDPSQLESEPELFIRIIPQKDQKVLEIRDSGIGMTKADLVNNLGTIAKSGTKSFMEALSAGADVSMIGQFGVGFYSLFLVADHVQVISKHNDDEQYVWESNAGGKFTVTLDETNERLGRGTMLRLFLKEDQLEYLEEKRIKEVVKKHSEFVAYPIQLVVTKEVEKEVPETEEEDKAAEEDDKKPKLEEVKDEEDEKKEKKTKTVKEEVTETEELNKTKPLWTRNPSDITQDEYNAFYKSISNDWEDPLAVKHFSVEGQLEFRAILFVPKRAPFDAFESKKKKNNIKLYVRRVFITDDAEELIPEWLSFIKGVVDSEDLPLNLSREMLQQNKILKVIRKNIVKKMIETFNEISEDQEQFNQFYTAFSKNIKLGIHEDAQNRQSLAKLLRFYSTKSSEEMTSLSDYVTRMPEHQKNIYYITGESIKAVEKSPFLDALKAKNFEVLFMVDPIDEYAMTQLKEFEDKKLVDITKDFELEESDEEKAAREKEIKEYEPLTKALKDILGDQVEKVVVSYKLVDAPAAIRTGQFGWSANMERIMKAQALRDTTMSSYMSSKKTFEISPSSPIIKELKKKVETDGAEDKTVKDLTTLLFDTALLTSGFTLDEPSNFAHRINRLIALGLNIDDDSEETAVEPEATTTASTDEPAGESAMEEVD
- TEST DESCRIPTION: loss of DOC-induced GRE-beta-galactosidase reporter signal, dose response, Hsp90 inhibitor project, S. cerevisiae, luminescence (AID 2400);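 note: beta-galactosidase luminescence from glucocorticoid response element reporter as proxy for Hsp90 function; inhibitor potency where signal loss means Hsp90 inhibition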
- Format: functional, cell-based
Activity calls are given as the source filed them. Cut-off read from the data, not from the text of the source: actives have a measured EC50 and inactives only a lower limit.
Outcomes: Y for active, N for inactive

{"COMPOUND": "C[C@@H]1CC[C@@]2(NC1)O[C@H]1C[C@H]3[C@@H]4CC=C5C[C@@H](O)CC[C@]5(C)[C@H]4CC[C@]3(C)[C@H]1[C@@H]2C", "ASSIGNED LABEL": "N"}
{"COMPOUND": "O=C(Nc1nnc(CCc2ccccc2)s1)c1ccco1", "ASSIGNED LABEL": "N"}
{"COMPOUND": "CC(C)C(=O)NC(c1cccs1)c1cc([N+](=O)[O-])c2cccnc2c1O (centres undefined)", "ASSIGNED LABEL": "Y"}
{"COMPOUND": "O=[N+]([O-])c1ccc(O)c(/C=N/Nc2ccc(Cl)nn2)c1", "ASSIGNED LABEL": "N"}
